Every entry's value here was drawn from ChEMBL document CHEMBL1201862.

# System: HOP-18
# Protocol: NCI tumour cell line growth inhibition, 48 h
The source made the active and inactive calls. No stated cut-off is given here; in the data, active = GI50 up to about 1.1 µM and inactive = higher.
Response enum: 1 (yes) = active, 0 (no) = inactive

Data request: What call does the record list for O=C(CCC(=O)Nc1ccc(Cl)c(Cl)c1)CC(=O)c1ccc(Br)cc1 ?
Data returned: 0 (no)

Data request: What call does the record list for O=[N+]([O-])C1(CO)COC(CCc2ccccc2)OC1 (stereo unspecified) ?
Data returned: 0 (no)

Data request: What call does the record list for CC(=O)Nc1ccccc1-c1nc2ccccc2nc1-c1ccccc1 ?
Data returned: 1 (yes)

Data request: What call does the record list for O=C(c1ccccc1)[C@@H]1C[C@H](Sc2ccccc2)c2cc(Cl)ccc2N1 ?
Data returned: 0 (no)

Data request: What call does the record list for O=C(O)/C(Cl)=C(\Cl)C(=O)NC1C2CC3CC(C2)CC1C3 (stereo unspecified) ?
Data returned: 0 (no)

Data request: What call does the record list for CN(C)CC1CCC/C1=N\O (stereo unspecified) ?
Data returned: 0 (no)

Data request: What call does the record list for CNC(=S)NC1CCCCC1NC(=S)NC (stereo unspecified) ?
Data returned: 0 (no)

Data request: What call does the record list for CC1(C2COC(=O)C2)SCCCS1 (stereo unspecified) ?
Data returned: 0 (no)

Data request: What call does the record list for CN(C)C(=O)NC(=S)N(C)C ?
Data returned: 0 (no)

Data request: What call does the record list for COC1(OC)CC2C(=O)N(Cc3ccccc3)C1C=C2S(=O)(=O)c1ccccc1 (stereo unspecified) ?
Data returned: 0 (no)

Data request: What call does the record list for Cc1cc(C)nc(NS(=O)(=O)c2ccc(NC(=O)c3cccc4c(Nc5ccc(S(=O)(=O)N=C(N)N)cc5)c5ccccc5nc34)cc2)n1 ?
Data returned: 0 (no)

Data request: What call does the record list for CCOC(=O)/C(=C\c1ccc(O)c(OC)c1)C(=O)c1ccccc1 ?
Data returned: 0 (no)

Data request: What call does the record list for CC(=O)OCC1OC(n2c(-c3ccc(N)cc3)cc(-c3ccco3)c(C#N)c2=O)C(OC(C)=O)C(OC(C)=O)C1OC(C)=O (stereo unspecified) ?
Data returned: 0 (no)

Data request: What call does the record list for N/C(=N\O)N/N=C\c1c2ccccc2c(Cl)c2ccccc12 ?
Data returned: 0 (no)

Data request: What call does the record list for OCCCc1cnco1 ?
Data returned: 0 (no)

Data request: What call does the record list for C#CCOCn1cnc2c(Cl)ncnc21 ?
Data returned: 0 (no)

Data request: What call does the record list for CCc1ccc(/C(C)=N/NC(N)=S)cc1 ?
Data returned: 0 (no)

Data request: What call does the record list for CCN(CC)c1c(C)c(C(=O)OC)nn1-c1ccccc1 ?
Data returned: 0 (no)

Data request: What call does the record list for O=C1c2ccccc2C2(O)c3cc4ccccc4cc3OC12O (stereo unspecified) ?
Data returned: 0 (no)

Data request: What call does the record list for N#CC(C(=O)/C(=N\NC(N)=O)C(C#N)c1ccc(Cl)cc1)c1ccc(Cl)cc1 (stereo unspecified) ?
Data returned: 0 (no)

Data request: What call does the record list for O=C(CCc1n[nH]c(=S)o1)Nc1cc(Cl)ccc1Cl ?
Data returned: 0 (no)
